- Test system: HT-29
- RUN_DESCRIPTION: NCI tumour cell line growth inhibition, 48 h
Activity calls are given as the source filed them. No stated cut-off is given here; in the data, active = GI50 up to about 1.1 µM and inactive = higher.
OBSERVED_PROPERTY: GI50

Given the compound ClC1=C(Cl)C2OC3C=CCC3OC2C(Cl)=C1Cl (stereo unspecified) , what is its reported GI50?
21.3 µM (inactive)

Request: CCOC(=O)c1sc2[n+](c1C)C(=O)/C(=C/c1ccccc1Cl)S2
3.44 µM (inactive)

Request: O=c1oc2ccc3ccccc3c2cc1-c1nc2ccccc2s1
> 100 µM (inactive)

Request: CC1=NN(c2cccc(Cl)c2)C2(SCC(=O)N2c2nc3ccccc3s2)/C1=C\c1cccs1 (stereo unspecified)
21.6 µM (inactive)

Request: O=C1C[C@@H](c2ccc(O)cc2)[C@@]2(O1)C(=O)O[C@H]([C@@H](O)CO)[C@@H]2O
> 100 µM (inactive)

Request: CN1CCN(/C(N)=C(\C#N)C(=O)Nc2ccc(Cl)cc2)CC1
> 100 µM (inactive)

Request: COc1ccc(-c2cn3ccsc3n2)cc1
82.8 µM (inactive)

Request: COC(=O)CC1C2CC3C(C2=O)C13 (stereo unspecified)
> 100 µM (inactive)

Request: O=C1OC(CN2CCOCC2)CN1/N=C/c1ccc([N+](=O)[O-])o1 (stereo unspecified)
32.4 µM (inactive)

Request: O=C(c1ccccc1)c1ccc2[nH]c(-c3c(Cl)c(Cl)c(Cl)c(Cl)c3C(=O)Nc3ccco3)nc2c1
28.4 µM (inactive)

Request: O=C(CC(=O)Nc1ccccc1O)Nc1ccccc1O
27.9 µM (inactive)
